// provenance: PubChem BioAssay (NCI)

System: SF-295 CNS
method description: NCI tumour cell line growth inhibition, 48 h
Give TGI for every item shown.

*Q* For the molecule "C1CSCCSCCSCCSC1" , give its measured TGI value.
*A* > 100 µM

*Q* # return recorded TGI for entry "O=C1C=CC(=O)C12CCc1ccccc12"
*A* > 31.6 µM

*Q* Identify measured TGI associated with "CC(=O)c1cccc(C)c1C(=O)O"
*A* > 100 µM

*Q* Return the recorded TGI value; entry: "O=c1cc(N2CCN(CCCCCOc3cc(O)c4c(=O)cc(-c5ccccc5)oc4c3)CC2)c2ccccc2o1"
*A* > 100 µM

*Q* Given the molecule "CC1=C[C@]2(O)C(=O)[C@H](C)C[C@H]3[C@@H](CC[C@@](C)(O)/C=C\2C1=O)C3(C)C" , write its reported TGI.
*A* 75.8 µM

*Q* Name the recorded TGI of the molecule listed here: "c1ccc(N=C(Nc2ccccc2)N2CCCC2)cc1"
*A* > 100 µM

*Q* Give TGI for the following molecule: "NC(=O)c1cc2ccc(O)cc2o/c1=N/NC(=O)c1ccccc1"
*A* > 100 µM

*Q* Answer with the recorded TGI of "O=S(=O)(NCCCNc1nccc(-c2c(-c3ccc(F)c(O)c3)nc3sccn23)n1)c1ccc(F)cc1" only.
*A* 5.27 µM

*Q* Determine from records and report TGI for C=C(C)[C@@H]1CC[C@]2(C(=O)O)CC[C@]3(C)[C@H](CC[C@@H]4[C@@]5(C)CCC(NC(=O)c6cccc(OC(C)=O)c6OC(C)=O)C(C)(C)[C@@H]5CC[C@]43C)[C@@H]12 (stereo partly specified)
*A* 3.89 µM

*Q* Indicate its recorded TGI; the molecule in question is "O=C(c1ccccc1)c1c(-c2ccccc2)sc2nc3ccccc3nc12"
*A* > 100 µM

*Q* Entry "c1cc(N2CCCN(c3ccc(C4=NCCCN4)cc3)CC2)ccc1C1=NCCCN1" needs its TGI filled in; supply it.
*A* > 100 µM

*Q* Provide only the value of recorded TGI for "COc1ccc(NC(=O)CC/C(CC(=O)C(C)(C)C)=N\NC(=O)C(=O)NN)cc1"
*A* > 100 µM

*Q* Identify the reported TGI for the following entry. CCCCCCCCCCCCCCCCCCN(C)C(COC)COP(=O)([O-])OCC[N+](C)(C)C (stereo unspecified)
*A* 10.3 µM

*Q* Report measured TGI; entry is "O=c1c2cc(-c3ccccc3)sc2nc2n1N=C(c1ccc(Cl)cc1)CS2"
*A* > 100 µM

*Q* For "COc1ccc(-c2cc(-c3cccn3C)c(C#N)c(=O)[nH]2)cc1OC" , write its TGI.
*A* > 100 µM

*Q* Quote TGI reported for "CNC/C(Cl)=N/S(=O)(=O)c1ccc(C)cc1" please.
*A* 32.4 µM

*Q* Fill in TGI for record "COC(=O)c1cc2c3ccccc3n3c(=O)c4cc5ccccc5nc4c(n1)c23"
*A* > 100 µM

*Q* State its TGI for this molecule: "CCCCCCc1ccc(C(=O)NO)cc1"
*A* > 100 µM

*Q* Give recorded TGI. COC(=O)C1=CSC2(S1)C(C(=O)OC)=CSc1c2ssc1=O (stereo unspecified)
*A* 40.5 µM

*Q* Tell me TGI reported for "CN1CC(=O)N(C)c2ncn(Cc3ccccc3)c2C1=O"
*A* > 100 µM

*Q* Dear colleague, please send me the reported TGI for "COc1cc(/C=C2\N=C(c3ccccc3)N(c3nc4cc(C)c(C)cc4s3)C2=O)ccc1O" when you can.
*A* > 100 µM
